system: ECC10 (Gastric Carcinoma); experiment: combination Emax (second highest fraction inhibited in the dose matrix, 72 h); higher = more inhibition; extreme values may be limits of the assay
assay.endpoint: combination Emax

INSERT INTO assay_data (compound, assay_system, recorded_result) VALUES
  ('NC1(C(=O)N[C@@H](CCO)c2ccc(Cl)cc2)CCN(c2ncnc3[nH]ccc23)CC1 [Capivasertib] + C[C@@H]1COCCN1C2=NC(=NC(=C2)C3(CC3)[S@](=N)(=O)C)C4=C5C=CNC5=NC=C4 [AZD6738] (first compound max 10 µM, 7x7, partner max 10 µM)', 'ECC10 (Gastric Carcinoma)', 0.498),
  ('COc1cccc(OCCCN)c1-c1cc(Nc2cnc(C#N)cn2)n[nH]1 [Prexasertib] + CCc1c2c(nc3ccc(O)cc13)-c1cc3c(c(=O)n1C2)COC(=O)[C@]3(O)CC [SN-38] (first compound max 1 µM, 7x7, partner max 0.3 µM)', 'ECC10 (Gastric Carcinoma)', 1),
  ('Cc1cc2ncnn2cc1Nc1ncc2c(n1)n(C1CCOCC1)c(=O)n2C [AZD7648] + C=CCn1c(=O)c2cnc(Nc3ccc(N4CCN(C)CC4)cc3)nc2n1-c1cccc(C(C)(C)O)n1 [AZD1775] (first compound max 10 µM, partner max 1 µM)', 'ECC10 (Gastric Carcinoma)', 0.797),
  ('O=C(c1cc(Cc2n[nH]c(=O)c3ccccc23)ccc1F)N1CCN(C(=O)C2CC2)CC1 [Olaparib] + COc1nnc2ccc(N3CCC(c4ccc(OCCN5CCN(C)C(=O)[C@H]5C)cc4)CC3)nn12 [AZD5153] (first compound max 10 µM, 7x7, partner max 1 µM)', 'ECC10 (Gastric Carcinoma)', 0.786);

###

system: VCaP (Prostate Carcinoma); assay: combination Emax (second highest fraction inhibited in the dose matrix, 72 h); higher = more inhibition; extreme values may be limits of the assay
assay.endpoint: combination Emax

INSERT INTO measurements (compound, assay_system, assay_endpoint, recorded_result) VALUES
  ('CN(CCO)CC[C@H](CSc1ccccc1)Nc1ccc(S(=O)(=O)NC(=O)c2ccc(N3CCC([C@@H](O)c4ccccc4-c4ccc(Cl)cc4)CC3)cc2)cc1S(=O)(=O)C(F)(F)F [AZD4320] + CS(=O)(=O)CCNCc1ccc(-c2ccc3ncnc(Nc4ccc(OCc5cccc(F)c5)c(Cl)c4)c3c2)o1 [Lapatinib] (first compound max 1 µM, 7x7, partner max 10 µM)', 'VCaP (Prostate Carcinoma)', 'combination Emax', 0.434),
  ('Cc1cc2ncnn2cc1Nc1ncc2c(n1)n(C1CCOCC1)c(=O)n2C [AZD7648] + CCN(CCO)CCCOc1ccc2c(Nc3cc(CC(=O)Nc4cccc(F)c4)[nH]n3)ncnc2c1 [AZD2811] (first compound max 10 µM, 7x7, partner max 1 µM)', 'VCaP (Prostate Carcinoma)', 'combination Emax', 0.314),
  ('N#Cc1cnc(Nc2cc(NC[C@H]3CNCCO3)c(C(F)(F)F)cn2)cn1 [SRA737] + Nc1ccn([C@@H]2O[C@H](CO)[C@@H](O)C2(F)F)c(=O)n1 [Gemcitabine] (first compound max 10 µM, 7x7, partner max 0.3 µM)', 'VCaP (Prostate Carcinoma)', 'combination Emax', 0.77),
  ('CS(=O)(=O)CCNCc1ccc(-c2ccc3ncnc(Nc4ccc(OCc5cccc(F)c5)c(Cl)c4)c3c2)o1 [Lapatinib] + C[C@@H](Oc1cc(-c2cnn(C3CCNCC3)c2)cnc1N)c1c(Cl)ccc(F)c1Cl [Crizotinib] (first compound max 10 µM, 7x7, partner max 10 µM)', 'VCaP (Prostate Carcinoma)', 'combination Emax', 0.465);

###

tested on: COR-L311 (Small Cell Lung Carcinoma); assay: combination Emax (second highest fraction inhibited in the dose matrix, 72 h); higher = more inhibition; extreme values may be limits of the assay
assay.endpoint: combination Emax

INSERT INTO measurements (molecule, recorded_result) VALUES
  ('Cc1cc2ncnn2cc1Nc1ncc2c(n1)n(C1CCOCC1)c(=O)n2C [AZD7648] + O=C(c1cc(Cc2n[nH]c(=O)c3ccccc23)ccc1F)N1CCN(C(=O)C2CC2)CC1 [Olaparib] (first compound max 10 µM, 7x7, partner max 10 µM)', 0.456),
  ('CC1(C)CCC(CN2CCN(c3ccc(C(=O)NS(=O)(=O)c4ccc(NCC5CCOCC5)c([N+](=O)[O-])c4)c(Oc4cnc5[nH]ccc5c4)c3)CC2)=C(c2ccc(Cl)cc2)C1 [Venetoclax] + Cn1cnc2c(F)c(Nc3ccc(Br)cc3Cl)c(C(=O)NOCCO)cc21 [Selumetinib] (first compound max 1 µM, 7x7, partner max 3 µM)', 0.635),
  ('Cc1nc(Nc2ncc(C(=O)Nc3c(C)cccc3Cl)s2)cc(N2CCN(CCO)CC2)n1 [Dasatinib] + CC(=O)Nc1cccc(-n2c(=O)n(C3CC3)c(=O)c3c(Nc4ccc(I)cc4F)n(C)c(=O)c(C)c32)c1 [Trametinib] (first compound max 2 µM, 7x7, partner max 1 µM)', 0.0652),
  ('Cc1cc2ncnn2cc1Nc1ncc2c(n1)n(C1CCOCC1)c(=O)n2C [AZD7648] + CCN(CCO)CCCOc1ccc2c(Nc3cc(CC(=O)Nc4cccc(F)c4)[nH]n3)ncnc2c1 [AZD2811] (first compound max 10 µM, 7x7, partner max 1 µM)', 0.829),
  ('CN(C)CCCOc1ccc(-c2ccc3ncc4c(c3c2)n(C2CCOCC2)c(=O)n4C)cn1 [AZD0156] + O=C(c1cc(Cc2n[nH]c(=O)c3ccccc23)ccc1F)N1CCN(C(=O)C2CC2)CC1 [Olaparib] (first compound max 3 µM, partner max 3 µM)', 0.393),
  ('COc1cccc(OCCCN)c1-c1cc(Nc2cnc(C#N)cn2)n[nH]1 [Prexasertib] + C[C@@H]1COCCN1C2=NC(=NC(=C2)C3(CC3)[S@](=N)(=O)C)C4=C5C=CNC5=NC=C4 [AZD6738] (first compound max 1 µM, 7x7, partner max 10 µM)', 0.771),
  ('CC1(C)CCC(CN2CCN(c3ccc(C(=O)NS(=O)(=O)c4ccc(NCC5CCOCC5)c([N+](=O)[O-])c4)c(Oc4cnc5[nH]ccc5c4)c3)CC2)=C(c2ccc(Cl)cc2)C1 [Venetoclax] + CCN(CCO)CCCOc1ccc2c(Nc3cc(CC(=O)Nc4cccc(F)c4)[nH]n3)ncnc2c1 [AZD2811] (first compound max 1 µM, 7x7, partner max 1 µM)', 0.927);

###

test system: A3-KAW (B-Cell Non-Hodgkin's Lymphoma); experiment: Bliss excess, mean over the matrix (fraction); higher = more synergy
assay.endpoint: Bliss excess

INSERT INTO assay_data (molecule, recorded_result) VALUES
  ('Cn1cnc2c(F)c(Nc3ccc(Br)cc3Cl)c(C(=O)NOCCO)cc21 [Selumetinib] + C[C@@H]1COCCN1C2=NC(=NC(=C2)C3(CC3)[S@](=N)(=O)C)C4=C5C=CNC5=NC=C4 [AZD6738] (first compound max 10 µM, 7x7, partner max 10 µM)', 0.061),
  ('CN(C)CCCOc1ccc(-c2ccc3ncc4c(c3c2)n(C2CCOCC2)c(=O)n4C)cn1 [AZD0156] + C[C@@H]1COCCN1C2=NC(=NC(=C2)C3(CC3)[S@](=N)(=O)C)C4=C5C=CNC5=NC=C4 [AZD6738] (first compound max 1 µM, 7x7, partner max 10 µM)', 0.0876);

###

The entries below are paired with their reported combination Emax.
test system: A3-KAW (B-Cell Non-Hodgkin's Lymphoma); assay: combination Emax (second highest fraction inhibited in the dose matrix, 72 h); higher = more inhibition; extreme values may be limits of the assay
assay.endpoint: combination Emax

INSERT INTO results (molecule, assay_endpoint, recorded_result) VALUES
  ('CC1(C)CCC(CN2CCN(c3ccc(C(=O)NS(=O)(=O)c4ccc(NCC5CCOCC5)c([N+](=O)[O-])c4)c(Oc4cnc5[nH]ccc5c4)c3)CC2)=C(c2ccc(Cl)cc2)C1 [Venetoclax] + C1CN(CCC1(C(=O)N[C@@H](CCO)C2=CC=C(C=C2)Cl)N)C3=NC=NC4=C3C=CN4 [Capivasertib] (first compound max 1 µM, 7x7, partner max 3 µM)', 'combination Emax', 0.282),
  ('COc1nnc2ccc(N3CCC(c4ccc(OCCN5CCN(C)C(=O)[C@H]5C)cc4)CC3)nn12 [AZD5153] + CCN(CCO)CCCOc1ccc2c(Nc3cc(CC(=O)Nc4cccc(F)c4)[nH]n3)ncnc2c1 [AZD2811] (first compound max 1 µM, 7x7, partner max 1 µM)', 'combination Emax', 1),
  ('COc1cc2c(cc1OCCCCCOc1cc3c(cc1OC)C(=O)N1C=C(C)C[C@H]1C=N3)N=C[C@@H]1CC(C)=CN1C2=O [SG3199] + O=C(c1cc(Cc2n[nH]c(=O)c3ccccc23)ccc1F)N1CCN(C(=O)C2CC2)CC1 [Olaparib] (first compound max 0.001 µM, 7x7, partner max 10 µM)', 'combination Emax', 0.595),
  ('COc1nnc2ccc(N3CCC(c4ccc(OCCN5CCN(C)C(=O)[C@H]5C)cc4)CC3)nn12 [AZD5153] + Cn1cnc2c(F)c(Nc3ccc(Br)cc3Cl)c(C(=O)NOCCO)cc21 [Selumetinib] (first compound max 1 µM, 7x7, partner max 10 µM)', 'combination Emax', 1);
